target: UniProt P31424; test: mGluR5 calcium flux assay in HEK 293A cells, negative allosteric modulation of glutamate EC80 response; details: HEK cells transfected with rat mGluR5; glutamate EC80; ± is standard error of at least three experiments
Sequence (P31424 21-1203): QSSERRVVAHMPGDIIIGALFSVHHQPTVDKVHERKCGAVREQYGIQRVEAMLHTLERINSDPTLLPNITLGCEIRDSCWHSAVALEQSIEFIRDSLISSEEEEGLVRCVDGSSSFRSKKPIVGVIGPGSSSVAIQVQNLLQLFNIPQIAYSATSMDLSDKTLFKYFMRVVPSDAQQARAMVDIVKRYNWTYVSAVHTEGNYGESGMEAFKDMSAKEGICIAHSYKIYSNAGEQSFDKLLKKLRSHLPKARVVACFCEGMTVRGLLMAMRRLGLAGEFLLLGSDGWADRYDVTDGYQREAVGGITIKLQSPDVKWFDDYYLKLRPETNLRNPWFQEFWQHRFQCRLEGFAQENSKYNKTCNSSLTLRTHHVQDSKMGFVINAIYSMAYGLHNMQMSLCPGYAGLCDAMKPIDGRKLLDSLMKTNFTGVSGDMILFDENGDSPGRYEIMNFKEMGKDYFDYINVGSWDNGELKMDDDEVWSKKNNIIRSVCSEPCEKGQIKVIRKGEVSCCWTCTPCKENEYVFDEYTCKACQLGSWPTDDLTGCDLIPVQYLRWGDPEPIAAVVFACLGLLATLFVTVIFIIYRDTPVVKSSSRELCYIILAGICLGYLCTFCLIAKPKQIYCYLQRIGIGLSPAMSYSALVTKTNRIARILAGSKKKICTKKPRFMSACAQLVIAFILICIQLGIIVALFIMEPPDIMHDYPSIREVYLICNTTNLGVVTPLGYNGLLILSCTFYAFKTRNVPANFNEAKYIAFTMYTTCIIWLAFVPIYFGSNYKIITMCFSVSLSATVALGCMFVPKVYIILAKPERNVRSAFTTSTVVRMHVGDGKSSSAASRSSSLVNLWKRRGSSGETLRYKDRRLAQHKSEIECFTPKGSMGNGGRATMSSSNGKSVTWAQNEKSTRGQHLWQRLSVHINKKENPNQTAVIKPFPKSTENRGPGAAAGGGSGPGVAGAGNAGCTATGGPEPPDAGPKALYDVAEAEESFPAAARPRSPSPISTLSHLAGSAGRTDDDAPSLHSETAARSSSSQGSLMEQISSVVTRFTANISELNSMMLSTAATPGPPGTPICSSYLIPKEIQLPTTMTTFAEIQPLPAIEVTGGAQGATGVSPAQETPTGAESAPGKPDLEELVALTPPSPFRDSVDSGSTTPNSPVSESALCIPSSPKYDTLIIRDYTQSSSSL
pIC50: −log10 of the molar value.

{"Compound Structure String": "COC[C@@H](C)Oc1cc(C)nc(C(=O)Nc2ccc(F)cn2)c1", "Value Relation Sign": "=", "pIC50": 5.04}
{"Compound Structure String": "CCOCCOc1cc(C)nc(C(=O)Nc2ccc(F)cn2)c1", "Value Relation Sign": "=", "pIC50": 5.68}
{"Compound Structure String": "COCCCOc1cc(C)nc(C(=O)Nc2ccccn2)c1", "Value Relation Sign": "=", "pIC50": 6.07}
{"Compound Structure String": "Cc1cc(OC2CSC2)cc(C(=O)Nc2nc(C)cs2)n1", "Value Relation Sign": "=", "pIC50": 7.51}
{"Compound Structure String": "Cc1cc(O[C@@H]2CCOC2)cc(C(=O)Nc2nc(C3CC3)cs2)n1", "Value Relation Sign": "=", "pIC50": 6.82}
{"Compound Structure String": "Cc1cc(OC2CC3(COC3)C2)cc(C(=O)Nc2ccc(F)cn2)n1", "Value Relation Sign": "=", "pIC50": 5.43}
{"Compound Structure String": "COC(=O)N1CC(Oc2cc(C)nc(C(=O)Nc3ccc(F)cn3)c2)C1", "Value Relation Sign": "=", "pIC50": 5.80}
{"Compound Structure String": "Cc1cc(OC2CS(=O)(=O)C2)cc(C(=O)Nc2ccc(F)cn2)n1", "Value Relation Sign": "=", "pIC50": 6.13}
{"Compound Structure String": "Cc1cc(OC2CN(C(=O)OCC(C)C)C2)cc(C(=O)Nc2ccc(F)cn2)n1", "Value Relation Sign": "<", "pIC50": 4.52}
{"Compound Structure String": "Cc1cc(OCC2CCOCC2)cc(C(=O)Nc2nc(C)cs2)n1", "Value Relation Sign": "=", "pIC50": 6.21}
{"Compound Structure String": "CO[C@@H](C)COc1cc(C)nc(C(=O)Nc2nc(C)cs2)c1", "Value Relation Sign": "=", "pIC50": 5.98}

Every entry's value here was drawn from patent US20170247366A1.
